System: Haemophilus influenzae
assay_text: Antibacterial activity against Haemophilus influenzae ATCC 49247 by broth microdilution method
Assay type: functional
Measured MIC, listed per entry.
Give the value in µg/mL but do not write µg/mL after it.

// worked examples, MIC included
CC[C@H]1OC(=O)[C@H](C)[C@@H](O[C@H]2C[C@@](C)(OC)[C@@H](OCCCOCCCCCc3ccc4c(c3)c(=O)c(C(=O)O)cn4CC)[C@H](C)O2)[C@H](C)[C@@H](O[C@@H]2O[C@H](C)C[C@H](N(C)C)[C@H]2O)[C@](C)(O)C[C@@H](C)CN(C)[C@H](C)[C@@H](O)[C@]1(C)O : 2
CC[C@H]1OC(=O)[C@H](C)[C@@H](O[C@H]2C[C@@](C)(OC)[C@@H](OCCCOCCCc3cc4c5c(c3)c(=O)c(C(=O)O)cn5C(C)(C)OC4)[C@H](C)O2)[C@H](C)[C@@H](O[C@@H]2O[C@H](C)C[C@H](N(C)C)[C@H]2O)[C@](C)(O)C[C@@H](C)CN(C)[C@H](C)[C@@H](O)[C@]1(C)O : 1
CC[C@H]1OC(=O)[C@H](C)[C@@H](O[C@H]2C[C@@](C)(OC)[C@@H](OCCCOCCCCc3ccc4c(c3)c(=O)c(C(=O)O)cn4CC)[C@H](C)O2)[C@H](C)[C@@H](O[C@@H]2O[C@H](C)C[C@H](N(C)C)[C@H]2O)[C@](C)(O)C[C@@H](C)CN(C)[C@H](C)[C@@H](O)[C@]1(C)O : 0.5
CCCn1cc(C(=O)O)c(=O)c2cc(CCCOCCCO[C@H]3[C@H](C)O[C@@H](O[C@H]4[C@H](C)[C@@H](O[C@@H]5O[C@H](C)C[C@H](N(C)C)[C@H]5O)[C@](C)(O)C[C@@H](C)CN(C)[C@H](C)[C@@H](O)[C@](C)(O)[C@@H](CC)OC(=O)[C@@H]4C)C[C@@]3(C)OC)ccc21 : 2
CC[C@H]1OC(=O)[C@H](C)[C@@H](O[C@H]2C[C@@](C)(OC)[C@@H](OCCCOCCCc3ccc4c(c3)c(=O)c(C(=O)O)cn4N(C)C)[C@H](C)O2)[C@H](C)[C@@H](O[C@@H]2O[C@H](C)C[C@H](N(C)C)[C@H]2O)[C@](C)(O)C[C@@H](C)CN(C)[C@H](C)[C@@H](O)[C@]1(C)O : 2

Switching to the query record.
Exam item: // lookup MIC for CC[C@H]1OC(=O)[C@H](C)[C@@H](O[C@H]2C[C@@](C)(OC)[C@@H](OCCCOCCCCc3ccc4c(c3)c(=O)c(C(=O)O)cn4C3CC3)[C@H](C)O2)[C@H](C)[C@@H](O[C@@H]2O[C@H](C)C[C@H](N(C)C)[C@H]2O)[C@](C)(O)C[C@@H](C)CN(C)[C@H](C)[C@@H](O)[C@]1(C)O
Marked response: 0.5

---

Measured MIC, listed per entry.
Tested on: Streptococcus pneumoniae
assay_text: Antibacterial activity against efflux-mediated macrolide-resistance Streptococcus pneumoniae Ci137 by broth microdilution method
Assay type: functional
condition_set: read-out: MIC

CC[C@H]1OC(=O)[C@H](C)[C@@H](O[C@H]2C[C@@](C)(OC)[C@@H](OCCCOCCCc3ccc4c(c3)c(=O)c(C(=O)O)cn4CCN(C)C)[C@H](C)O2)[C@H](C)[C@@H](O[C@@H]2O[C@H](C)C[C@H](N(C)C)[C@H]2O)[C@](C)(O)C[C@@H](C)CN(C)[C@H](C)[C@@H](O)[C@]1(C)O : ≤ 0.125 mg/L

Switching to the query record.
Exam item: // lookup MIC for CC[C@H]1OC(=O)[C@H](C)[C@@H](O[C@H]2C[C@@](C)(OC)[C@@H](OCCCOCCCc3ccc4c(c3)c(=O)c(C(=O)O)cn4CC)[C@H](C)O2)[C@H](C)[C@@H](O[C@@H]2O[C@H](C)C[C@H](N(C)C)[C@H]2O)[C@](C)(O)C[C@@H](C)CN(C)[C@H](C)[C@@H](O)[C@]1(C)O
Marked response: ≤ 0.125 mg/L

---

Measured MIC, listed per entry.
Tested on: Streptococcus pyogenes
assay_text: Antibacterial activity against efflux-mediated macrolide-resistance Streptococcus pyogenes 2 by broth microdilution method
Type: functional

// worked examples, MIC included
CC[C@H]1OC(=O)[C@H](C)[C@@H](O[C@H]2C[C@@](C)(OC)[C@@H](OCCCOCCCc3ccc4c(c3)c(=O)c(C(=O)O)cn4CCOC)[C@H](C)O2)[C@H](C)[C@@H](O[C@@H]2O[C@H](C)C[C@H](N(C)C)[C@H]2O)[C@](C)(O)C[C@@H](C)CN(C)[C@H](C)[C@@H](O)[C@]1(C)O : ≤ 0.125 µg/mL
CC[C@H]1OC(=O)[C@H](C)[C@@H](O[C@H]2C[C@@](C)(OC)[C@@H](OCCCOCCCc3cc4c5c(c3)c(=O)c(C(=O)O)cn5C(C)(C)OC4)[C@H](C)O2)[C@H](C)[C@@H](O[C@@H]2O[C@H](C)C[C@H](N(C)C)[C@H]2O)[C@](C)(O)C[C@@H](C)CN(C)[C@H](C)[C@@H](O)[C@]1(C)O : ≤ 0.125 µg/mL

Exam item: // lookup MIC for CC[C@H]1OC(=O)[C@H](C)[C@@H](O[C@H]2C[C@@](C)(OC)[C@@H](OCCCOCCCc3ccc4c(c3)c(=O)c(C(=O)O)cn4N(C)C)[C@H](C)O2)[C@H](C)[C@@H](O[C@@H]2O[C@H](C)C[C@H](N(C)C)[C@H]2O)[C@](C)(O)C[C@@H](C)CN(C)[C@H](C)[C@@H](O)[C@]1(C)O
Marked response: ≤ 0.125 µg/mL

Exam item: // lookup MIC for CCCn1cc(C(=O)O)c(=O)c2cc(CCCOCCCO[C@H]3[C@H](C)O[C@@H](O[C@H]4[C@H](C)[C@@H](O[C@@H]5O[C@H](C)C[C@H](N(C)C)[C@H]5O)[C@](C)(O)C[C@@H](C)CN(C)[C@H](C)[C@@H](O)[C@](C)(O)[C@@H](CC)OC(=O)[C@@H]4C)C[C@@]3(C)OC)ccc21
Marked response: ≤ 0.125 µg/mL

Exam item: // lookup MIC for CC[C@H]1OC(=O)[C@H](C)[C@@H](O[C@H]2CC(C)(OC)[C@@H](OCCCOCCCc3ccc4c(c3)c(=O)c(C(=O)O)cn4C(C)(C)C)[C@H](C)O2)[C@H](C)[C@@H](O[C@@H]2O[C@H](C)C[C@H](N(C)C)[C@H]2O)[C@](C)(O)C[C@@H](C)CN(C)[C@H](C)[C@@H](O)[C@]1(C)O (some centres not stated)
Marked response: ≤ 0.125 µg/mL

Exam item: // lookup MIC for CC[C@H]1OC(=O)[C@H](C)[C@@H](O[C@H]2C[C@@](C)(OC)[C@@H](OCCCOCCCc3ccc4c(c3)c(=O)c(C(=O)O)cn4C(C)C)[C@H](C)O2)[C@H](C)[C@@H](O[C@@H]2O[C@H](C)C[C@H](N(C)C)[C@H]2O)[C@](C)(O)C[C@@H](C)CN(C)[C@H](C)[C@@H](O)[C@]1(C)O
Marked response: ≤ 0.125 µg/mL

Exam item: // lookup MIC for CC[C@H]1OC(=O)[C@H](C)[C@@H](O[C@H]2C[C@@](C)(OC)[C@@H](OCCCOCCCc3ccc4c(c3)c(=O)c(C(=O)O)cn4CC)[C@H](C)O2)[C@H](C)[C@@H](O[C@@H]2O[C@H](C)C[C@H](N(C)C)[C@H]2O)[C@](C)(O)C[C@@H](C)CN(C)[C@H](C)[C@@H](O)[C@]1(C)O
Marked response: ≤ 0.125 µg/mL

---

Measured MIC, listed per entry.
System: Streptococcus pneumoniae
assay_text: Antibacterial activity against inducible resistance to macrolide and constitutive resistance to lincosamide Streptococcus pneumoniae 134 GR M by broth microdilution method
Type: functional

CC[C@H]1OC(=O)[C@H](C)[C@@H](O[C@H]2C[C@@](C)(OC)[C@@H](OCCCOCCCc3ccc4c(c3)c(=O)c(C(=O)O)cn4CCN(C)C)[C@H](C)O2)[C@H](C)[C@@H](O[C@@H]2O[C@H](C)C[C@H](N(C)C)[C@H]2O)[C@](C)(O)C[C@@H](C)CN(C)[C@H](C)[C@@H](O)[C@]1(C)O : 0.25 µg/mL
CC[C@H]1OC(=O)[C@H](C)[C@@H](O[C@H]2C[C@@](C)(OC)[C@@H](OCCCOCCCc3cc4c5c(c3)c(=O)c(C(=O)O)cn5C(C)(C)CO4)[C@H](C)O2)[C@H](C)[C@@H](O[C@@H]2O[C@H](C)C[C@H](N(C)C)[C@H]2O)[C@](C)(O)C[C@@H](C)CN(C)[C@H](C)[C@@H](O)[C@]1(C)O : ≤ 0.125 µg/mL
CCCCn1cc(C(=O)O)c(=O)c2cc(CCCOCCCO[C@H]3[C@H](C)O[C@@H](O[C@H]4[C@H](C)[C@@H](O[C@@H]5O[C@H](C)C[C@H](N(C)C)[C@H]5O)[C@](C)(O)C[C@@H](C)CN(C)[C@H](C)[C@@H](O)[C@](C)(O)[C@@H](CC)OC(=O)[C@@H]4C)C[C@@]3(C)OC)ccc21 : ≤ 0.125 µg/mL
CC[C@H]1OC(=O)[C@H](C)[C@@H](O[C@H]2C[C@@](C)(OC)[C@@H](OCCCOCCCCc3ccc4c(c3)c(=O)c(C(=O)O)cn4N(C)C)[C@H](C)O2)[C@H](C)[C@@H](O[C@@H]2O[C@H](C)C[C@H](N(C)C)[C@H]2O)[C@](C)(O)C[C@@H](C)CN(C)[C@H](C)[C@@H](O)[C@]1(C)O : 0.5 µg/mL
CC[C@H]1OC(=O)[C@H](C)[C@@H](O[C@H]2C[C@@](C)(OC)[C@@H](OCCCOCCCCCc3ccc4c(c3)c(=O)c(C(=O)O)cn4CC)[C@H](C)O2)[C@H](C)[C@@H](O[C@@H]2O[C@H](C)C[C@H](N(C)C)[C@H]2O)[C@](C)(O)C[C@@H](C)CN(C)[C@H](C)[C@@H](O)[C@]1(C)O : 0.5 µg/mL

Exam item: // lookup MIC for CC[C@H]1OC(=O)[C@H](C)[C@@H](O[C@H]2C[C@@](C)(OC)[C@@H](OCCCOCCCc3cc4c5c(c3)c(=O)c(C(=O)O)cn5C(C)(C)OC4)[C@H](C)O2)[C@H](C)[C@@H](O[C@@H]2O[C@H](C)C[C@H](N(C)C)[C@H]2O)[C@](C)(O)C[C@@H](C)CN(C)[C@H](C)[C@@H](O)[C@]1(C)O
Marked response: ≤ 0.125 µg/mL

Exam item: // lookup MIC for CC[C@H]1OC(=O)[C@H](C)C(=O)[C@H](C)[C@@H](O[C@@H]2O[C@H](C)C[C@H](N(C)C)[C@H]2O)[C@](C)(OC)C[C@@H](C)C(=O)[C@H](C)[C@H]2N(CCCCn3cnc(-c4cccnc4)c3)C(=O)O[C@]12C
Marked response: 0.25 µg/mL
